Recorded measurements of one-hybrid fitness for binding NBS DNA, one per entry
B1: Caulobacter ParB omega fusion; a variant is named by its letters at X, in order, B8GW30 (parent)
chain: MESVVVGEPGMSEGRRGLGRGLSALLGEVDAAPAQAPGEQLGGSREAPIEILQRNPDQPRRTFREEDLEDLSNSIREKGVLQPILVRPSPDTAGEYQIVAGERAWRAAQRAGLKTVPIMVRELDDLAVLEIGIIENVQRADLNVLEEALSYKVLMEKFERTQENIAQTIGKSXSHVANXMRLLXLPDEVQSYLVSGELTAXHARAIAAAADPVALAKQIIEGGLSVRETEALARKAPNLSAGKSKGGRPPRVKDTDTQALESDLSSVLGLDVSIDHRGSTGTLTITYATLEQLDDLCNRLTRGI

# Variants of: B1
# Test summary: one-hybrid fitness for binding NBS DNA (the Noc-binding site; scaled: cognate 1, non-cognate 0); higher = stronger binding
# Measurement setup: with NBS DNA site
Over roughly 81,000 sequences, “one-hybrid fitness for binding NBS DNA” has its median near -0.1; the highest 2% begin near 0.36. This excerpt belongs to a sample that is enriched for the highest values.

Worked cases, answers included:
INSERT INTO results (mut, meas_value) VALUES
  ('RHIT', 0.243),
  ('TTST', '≤ 0.2'),
  ('TDVL', '≤ 0.2'),
  ('RHRT', 0.583),
  ('RHLT', 0.33);

`HKSN` yielded one-hybrid fitness for binding NBS DNA of ≤ 0.2

`YAKI` yielded one-hybrid fitness for binding NBS DNA of ≤ 0.2

`QGWN` yielded one-hybrid fitness for binding NBS DNA of ≤ 0.2

`RAQP` yielded one-hybrid fitness for binding NBS DNA of ≤ 0.2

`IMSF` yielded one-hybrid fitness for binding NBS DNA of ≤ 0.2

`RHQT` yielded one-hybrid fitness for binding NBS DNA of 0.39
